Assayed Target: human TopBP1 BRCT4/5 (549-746), untagged (human, UniProt Q92547 549-746)
Sequence (Q92547 549-746): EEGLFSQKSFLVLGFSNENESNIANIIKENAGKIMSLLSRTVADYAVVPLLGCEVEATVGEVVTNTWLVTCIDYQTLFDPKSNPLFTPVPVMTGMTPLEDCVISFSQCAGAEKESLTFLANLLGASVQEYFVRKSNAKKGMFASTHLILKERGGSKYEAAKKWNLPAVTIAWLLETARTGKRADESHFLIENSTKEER
Assay Summary: fluorescence polarisation
Square brackets hold non-standard residues; d marks the D form. * marks the point of attachment. FITC = O=C1OC2(c3ccc(O)cc3Oc3cc(O)ccc32)c2ccc(NC(=S)*)cc21; pS = N[C@@H](COP(=O)(O)O)C(=O)O
Reported Metric: Kd (µM)
Please reply with the bare figure in µM and do not write the unit itself.

stdin: What does the data say about its Kd? Entry: {FITC}-DTDFVPP[pS]PEEII-NH2 [FITC-labelled BLM pSer304 peptide (FITC-DTDFVPPpSPEEII-NH2)]
stdout: 3.2
